FYI, the data here is from patent US12590091B2.

Target: human TLR9 (Homo sapiens)
Construct: host or cells: HEK-Blue cells
Sequence (Q9NR96 26-1032): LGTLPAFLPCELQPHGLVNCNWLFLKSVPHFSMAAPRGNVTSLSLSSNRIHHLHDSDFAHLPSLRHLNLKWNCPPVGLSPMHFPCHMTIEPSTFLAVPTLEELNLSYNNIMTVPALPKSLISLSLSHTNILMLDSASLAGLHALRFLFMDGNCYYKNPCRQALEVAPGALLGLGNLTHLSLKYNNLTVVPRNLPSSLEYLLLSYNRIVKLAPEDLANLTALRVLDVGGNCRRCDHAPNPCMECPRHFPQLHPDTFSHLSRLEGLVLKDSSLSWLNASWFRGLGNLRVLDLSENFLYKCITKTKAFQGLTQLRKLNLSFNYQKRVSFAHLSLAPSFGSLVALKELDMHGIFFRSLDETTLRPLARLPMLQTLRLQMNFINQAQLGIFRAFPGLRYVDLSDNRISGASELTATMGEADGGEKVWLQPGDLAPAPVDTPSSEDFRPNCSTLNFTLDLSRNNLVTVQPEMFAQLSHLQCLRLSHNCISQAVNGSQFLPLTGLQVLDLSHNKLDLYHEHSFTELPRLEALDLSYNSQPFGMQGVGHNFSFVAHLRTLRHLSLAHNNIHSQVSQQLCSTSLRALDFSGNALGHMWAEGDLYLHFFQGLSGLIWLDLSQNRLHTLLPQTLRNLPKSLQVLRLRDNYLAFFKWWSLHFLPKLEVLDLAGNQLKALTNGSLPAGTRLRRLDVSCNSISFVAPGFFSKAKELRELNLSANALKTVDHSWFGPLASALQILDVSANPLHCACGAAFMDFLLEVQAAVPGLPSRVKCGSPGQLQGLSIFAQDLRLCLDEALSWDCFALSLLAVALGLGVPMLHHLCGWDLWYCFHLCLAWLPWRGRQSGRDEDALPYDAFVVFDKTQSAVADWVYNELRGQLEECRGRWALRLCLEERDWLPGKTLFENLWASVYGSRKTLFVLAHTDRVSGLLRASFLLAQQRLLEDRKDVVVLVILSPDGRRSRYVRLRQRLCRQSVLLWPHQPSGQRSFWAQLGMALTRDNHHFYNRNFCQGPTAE
Test: TLR9 inhibition reporter assay (HEK-Blue cells, SEAP reporter)
Format: cell-based
Details: HEK-Blue cells overexpressing human TLR9, stimulated with ODN2006 5 nM, 22 hour incubation
pIC50: −log10 of the molar value.
Measurement kind: pIC50

Compound | Target of assay | pIC50
Cc1nc(-c2ccc(CN3CCN(CCCO)CC3)cc2)cc2c1cc(-c1ccc(S(C)(=O)=O)cc1)n2C | human TLR9 (Homo sapiens) | 6.97
Cc1nc(-c2ccc(N3CCN(CCCO)CC3)cc2)cc2c1cc(-c1ccc(S(C)(=O)=O)cc1)n2C | human TLR9 (Homo sapiens) | 7.23
Cc1nc(-c2ccc(N3CCN(C4CCOC4)CC3)cc2)cc2c1cc(-c1ccc(S(C)(=O)=O)cc1)n2C (stereo not shown) | human TLR9 (Homo sapiens) | 7.24
Cc1nc(-c2ccc(N3CCN(CCc4ccc(Br)cc4)CC3)cc2)cc2c1cc(-c1ccc(S(C)(=O)=O)cc1)n2C | human TLR9 (Homo sapiens) | 6.95
Cc1nc(-c2ccc(CN3CCC(C)(O)CC3)cc2)cc2c1cc(-c1ccc(S(C)(=O)=O)cc1)n2C | human TLR9 (Homo sapiens) | 6.11
Cc1nc(-c2ccc(C3(O)CCN(C4CC4)CC3)cc2)cc2c1cc(-c1ccc(S(C)(=O)=O)cc1)n2C | human TLR9 (Homo sapiens) | 7.14
Cc1nc(-c2ccc(N3CCN(CC(C)C)CC3)cc2)cc2c1cc(-c1cccc(S(C)(=O)=O)c1)n2C | human TLR9 (Homo sapiens) | 7.01
Cc1nc(-c2ccc(N3CCN(C(C)C)CC3)c(F)c2)cc2c1cc(-c1ccc(S(C)(=O)=O)cc1)n2C | human TLR9 (Homo sapiens) | 7.44

I. Cc1nc(-c2ccc(N3CCN(CC(C)C)CC3)c(F)c2F)cc2c1cc(-c1ccc(S(C)(=O)=O)cc1)n2C
II. Cc1nc(-c2ccc(C3(O)CC4CCC(C3)N4C)c(F)c2)cc2c1cc(-c1ccc(S(C)(=O)=O)cc1)n2C (stereo not shown)
III. Cc1nc(-c2cc(F)c(N3CCN(CC(C)C)CC3)c(F)c2)cc2c1cc(-c1ccc(S(C)(=O)=O)cc1)n2C
IV. Cc1nc(-c2ccc(N3CCN(CCCO)CC3)c(F)c2F)cc2c1cc(-c1ccc(S(C)(=O)=O)cc1)n2C
V. Cc1nc(C2CCN(C3CC4CCC(C3)N4CC(C)C)CC2)cc2c1cc(-c1ccc(S(C)(=O)=O)cc1)n2C (stereo not shown)
Rank descending by pIC50. Form entry: labels listed in requested order. V, II, I, III, IV
(V: 7.33, II: 6.90, I: 6.48, III: 6.20, IV: 5.55)

1. Cc1nc(-c2ccc(N3CCN4CCCC4C3)c(F)c2F)cc2c1cc(-c1ccc(S(C)(=O)=O)cc1)n2C (stereo not shown)
2. Cc1nc(-c2ccc(CN3C[C@@H]4CC[C@H]3CN4CCC(C)(C)O)cc2)cc2c1cc(-c1ccc(S(C)(=O)=O)cc1)n2C
3. Cc1nc(-c2ccc([C@]3(O)CCN(C(C)C)C(C)(C)C3)c(F)c2)cc2c1cc(-c1ccc(S(C)(=O)=O)cc1)n2C
4. CC(C)CN1CCN(c2ccc(-c3cc4c(cn3)cc(-c3ccc(S(C)(=O)=O)cc3)n4C)cc2)CC1
// ascending sort on recorded pIC50 Form entry: labels listed in requested order. 1, 2, 3, 4
(1: 6.60, 2: 6.96, 3: 7.33, 4: 7.68)

A. Cc1nc(-c2ccc(N3CCN(C4CCOC4)CC3)c(F)c2)cc2c1cc(-c1ccc(S(C)(=O)=O)cc1)n2C (stereo not shown)
B. Cc1nc(-c2ccc(C3(O)CCN(C(C)(C)C)CC3)c(F)c2)cc2c1cc(-c1ccc(S(C)(=O)=O)cc1)n2C
C. Cc1nc(-c2ccc(C3(O)CCN(C4CC4)CC3)c(F)c2)cc2c1cc(-c1ccc(S(C)(=O)=O)cc1)n2C
D. Cc1nc(-c2ccc(N3CCS(=O)(=O)CC3)cc2)cc2c1cc(-c1ccc(S(C)(=O)=O)cc1)n2C
E. COc1ccc(-c2cc3cnc(-c4ccc(N5CCN(C(C)C)CC5)cc4)cc3n2C)cc1OC
Rank descending by pIC50. Form entry: labels listed in requested order. E, B, A, C, D
(E: 7.23, B: 6.79, A: 6.59, C: 5.84, D: 5.62)

A. Cc1nc(-c2ccc(N3CC4CCC(C3)N4CC(C)C)cc2)cc2c1cc(-c1ccc(S(C)(=O)=O)cc1)n2C
B. COc1ccc(-c2[nH]c3cnc(-c4ccc(N5CCN(C(C)C)CC5)cc4)cc3c2C)cc1OC
C. Cc1nc(-c2ccc(N3CC4CCC(C3)N4C(C)C)cc2)cc2c1cc(-c1ccc(S(C)(=O)=O)cc1)n2C
D. Cc1nc(-c2cccc(N3CCN(C(C)C)CC3)c2)cc2c1cc(-c1ccc(S(C)(=O)=O)cc1)n2C
// ascending sort on recorded pIC50 Form entry: labels listed in requested order. A, B, D, C
(A: 6.44, B: 6.79, D: 7.60, C: 8.19)

P. Cc1nc(-c2ccc(N3CCN(CC(C)C)CC3)cc2)cc2c1cc(-c1ccc(S(=O)(=O)C3CC3)cc1)n2C
Q. Cc1nc(-c2ccc(N3CCN(CC(C)C)CC3)cc2)cc2c1cc(-c1ccc(S(C)(=O)=O)cc1)n2C
// which entry reports the smaller pIC50, P or Q ? Please indicate the selected item by its label. P
